Can you tell me pIC50 for the items I'm about to list?
- subject of test: CDK9/Cyclin T1 (Homo sapiens, UniProt P50750)
- Sequence (P50750 whole entry): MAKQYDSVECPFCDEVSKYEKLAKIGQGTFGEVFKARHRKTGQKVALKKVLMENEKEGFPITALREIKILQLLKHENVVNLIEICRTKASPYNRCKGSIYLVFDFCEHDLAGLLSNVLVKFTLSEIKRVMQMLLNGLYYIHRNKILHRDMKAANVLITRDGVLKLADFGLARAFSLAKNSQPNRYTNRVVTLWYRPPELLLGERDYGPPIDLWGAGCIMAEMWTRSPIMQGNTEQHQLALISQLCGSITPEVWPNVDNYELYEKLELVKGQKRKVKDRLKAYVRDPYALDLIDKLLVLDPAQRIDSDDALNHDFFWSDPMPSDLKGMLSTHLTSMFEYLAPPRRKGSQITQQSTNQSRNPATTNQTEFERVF
- Sequence (O60563 whole entry partner): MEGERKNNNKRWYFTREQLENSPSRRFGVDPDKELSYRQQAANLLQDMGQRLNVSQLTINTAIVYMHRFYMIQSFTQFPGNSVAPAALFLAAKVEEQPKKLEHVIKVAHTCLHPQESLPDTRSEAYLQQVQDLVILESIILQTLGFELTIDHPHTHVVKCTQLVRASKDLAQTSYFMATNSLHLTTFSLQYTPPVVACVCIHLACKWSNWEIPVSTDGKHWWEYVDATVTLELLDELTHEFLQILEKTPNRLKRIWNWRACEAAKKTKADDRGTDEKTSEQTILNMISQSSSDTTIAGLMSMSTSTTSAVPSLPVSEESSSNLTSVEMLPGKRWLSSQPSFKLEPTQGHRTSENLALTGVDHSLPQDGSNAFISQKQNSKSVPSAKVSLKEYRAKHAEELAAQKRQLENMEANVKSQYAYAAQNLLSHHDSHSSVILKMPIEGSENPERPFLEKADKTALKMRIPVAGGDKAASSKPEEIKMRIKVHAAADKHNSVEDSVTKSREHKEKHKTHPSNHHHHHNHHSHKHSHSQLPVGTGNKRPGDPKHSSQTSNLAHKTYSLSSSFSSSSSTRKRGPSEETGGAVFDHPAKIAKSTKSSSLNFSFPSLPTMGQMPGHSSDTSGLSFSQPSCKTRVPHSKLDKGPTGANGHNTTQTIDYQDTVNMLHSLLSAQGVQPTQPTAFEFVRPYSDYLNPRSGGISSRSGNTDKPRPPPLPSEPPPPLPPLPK
- assay details: CDK9 enzyme protocol (LANCE ULight TR-FRET kinase assay)
- setup conditions: 4 nM CDK9/Cyclin T1, 1000 μM ATP, 100 nM U-light MBP peptide, 30 minutes
Numbers only, as −log10 of the molar value.

Reference set, count: 3
COc1ccc(F)cc1-c1ncnc2[nH]c(C3=CCN(Cc4ccncc4)CC3)cc12
6.66
COc1ccc(F)cc1-c1ncnc2[nH]c(C3=CCN(C(=O)C4CCCOC4)CC3)cc12 (centres unmarked)
7.07
COc1ccc(F)cc1-c1ncnc2[nH]c(C3=CCN(C(=O)C4CC4)CC3)cc12
7.37

Shifting focus to the molecule that follows.
Lookup: pIC50 / CDK9/Cyclin T1 (Homo sapiens, UniProt P50750) / COc1ccc(F)cc1-c1ncnc2[nH]c(C3=CCN(Cc4cccc(F)c4)CC3)cc12
6.82
